Examples of molecules with documented DC50 follow.
# tgt: AsPC-1 HiBiT-KRASG12D (Homo sapiens, UniProt P01116, G12D)
# Construct: insert the HiBiT tag onto the N-terminus of one or more of the endogenous KRAS alleles; endogenous in cells; host or cells: AsPC-1 (ATCC CRL-1682), CRISPR-Cas9 knock-in clone, one tagged allele
# Sequence (P01116 1-188 isoform P01116-2 G12D): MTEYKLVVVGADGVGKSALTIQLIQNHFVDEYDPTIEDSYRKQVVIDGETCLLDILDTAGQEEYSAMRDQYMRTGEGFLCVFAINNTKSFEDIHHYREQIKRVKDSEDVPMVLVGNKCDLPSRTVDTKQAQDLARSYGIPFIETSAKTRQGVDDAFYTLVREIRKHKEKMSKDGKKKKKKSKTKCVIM
# assay-overview: HiBiT degradation assay (G12D), AsPC-1 HiBiT-KRASG12D cells
# Assay type: cell-based
# measurement-setup: AsPC-1 HiBiT-KRASG12D cells, 24 hours treatment, HiBiT luminescence
result-type: DC50

>>> result("CCc1cccc2cc(O)cc(-c3ncc4c(N5CC6CCC(C5)N6)nc(OC5CCN(CC6CCN(c7cc([C@H](C(=O)N8C[C@H](O)C[C@H]8C(=O)N[C@@H](C)c8ccc(-c9scnc9C)cc8)C(C)C)on7)CC6)CC5)nc4c3F)c12 [Compound 166]")
"< 0.6 µM"
>>> result("CCc1cccc2cc(O)cc(-c3ncc4c(N5CC6CCC(C5)N6)nc(OCCN5CCC(CN6CC(Oc7cc([C@H](C(=O)N8C[C@H](O)C[C@H]8C(=O)N[C@@H](C)c8ccc(-c9scnc9C)cc8)C(C)C)on7)C6)CC5)nc4c3F)c12 [Compound 244]")
"< 0.6 µM"
>>> result("C#Cc1c(F)ccc2cc(O)cc(-c3ncc4c(N5CC6CCC(C5)N6)nc(OCCN5CCC(CC6CCN(c7cc([C@@H](C(=O)N8C[C@H](O)C[C@H]8C(=O)N[C@@H](C)c8ccc(-c9ccnn9C)cc8)C(C)C)on7)CC6)CC5)nc4c3F)c12 [Compound 169]")
"0.6 to 1 µM"
>>> result("CCc1cccc2cccc(-c3ncc4c(N5CC6CCC(C5)N6)nc(OC[C@@]56CCCN5[C@H](COc5cc([C@H](C(=O)N7C[C@H](O)C[C@H]7C(=O)N[C@@H](C)c7ccc(-c8scnc8C)cc7)C(C)C)on5)CC6)nc4c3F)c12 [Compound 54]")
"< 0.6 µM"
>>> result("CCc1cccc2cc(O)cc(-c3ncc4c(N5CC6CCC(C5)N6)nc(OC[C@]56CCCN5[C@H](COC(=O)N5C[C@H](C)N(c7cc([C@@H](C(=O)N8C[C@H](O)C[C@H]8C(=O)N[C@@H](C)c8ccc(-c9scnc9C)cc8)C(C)C)on7)C[C@H]5C)CC6)nc4c3F)c12 [Compound 302]")
"1 to 3 µM"
>>> result("CCc1cccc2cc(O)cc(-c3ncc4c(N5CC6CCC(C5)N6)nc(OCCN5CCC(F)(CN6CCN(c7cc([C@H](C(=O)N8C[C@H](O)C[C@H]8C(=O)N[C@@H](C)c8ccc(-c9scnc9C)cc8)C(C)C)on7)C[C@H]6C)CC5)nc4c3F)c12 [Compound 200]")
"< 0.6 µM"
>>> result("CCc1cccc2cc(O)cc(-c3ncc4c(N5CC6CCC(C5)N6)nc(OCCN5CCC6(CC5)CN(c5cc([C@@H](C(=O)N7C[C@H](O)C[C@H]7C(=O)N[C@@H](C)c7ccc(-c8ccnn8C)cc7)C(C)C)on5)C6)nc4c3F)c12 (relative stereo) [Compound 141]")
"1 to 3 µM"
>>> result("CCc1cccc2cc(O)cc(-c3cc4nc(OC[C@]56CCCN5[C@H](COC(=O)N5CCN(c7cc(C(C(=O)N8C[C@H](O)C[C@H]8C(=O)N[C@@H](C)c8ccc(-c9scnc9C)cc8)C(C)C)on7)CC5)CC6)nc(N5CC6CCC(C5)N6)c4cn3)c12 (single isomer, unassigned) [Compound 266]")
"< 0.6 µM"
>>> result("C#Cc1c(F)ccc2cc(O)cc(-c3ncc4c(N5CC6CCC(C5)N6)nc(OCCN5CCC(CN6CCN(c7cc([C@H](C(=O)N8C[C@H](O)C[C@H]8C(=O)N[C@@H](C)c8ccc(-c9ccnn9C)cc8)C(C)C)on7)CC6)CC5)nc4c3F)c12 [Compound 190]")
"< 0.6 µM"
>>> result("CCc1cccc2cc(O)cc(-c3ncc4c(N5CCCCCC5)nc(OC[C@]56CCCN5[C@H](COc5cc([C@H](C(=O)N7C[C@H](O)C[C@H]7C(=O)N[C@@H](C)c7ccc(-c8scnc8C)cc7)C(C)C)on5)CC6)nc4c3F)c12 [Compound 208]")
"< 0.6 µM"
>>> result("CCc1cccc2cc(O)cc(-c3ncc4c(N5CC6CCC(C5)N6)nc(OC[C@@H]5CC[C@@H](COC(=O)N6CC7(C6)CN(c6cc([C@H](C(=O)N8C[C@H](O)C[C@H]8C(=O)N[C@@H](C)c8ccc(-c9scnc9C)cc8)C(C)C)on6)C7)N5C)nc4c3F)c12 [Compound 213]")
"< 0.6 µM"
>>> result("CCc1cccc2cc(O)cc(-c3ncc4c(N5CC6CCC(C5)N6)nc(OCCN5CCC(CC6CCN(c7cc([C@H](C(=O)N8C[C@H](O)C[C@H]8C(=O)N[C@@H](C)c8ccc(-c9ccnn9C)cc8)C(C)C)on7)CC6)CC5)nc4c3F)c12 [Compound 202]")
"< 0.6 µM"
>>> result("CCc1cccc2cc(O)cc(-c3ncc4c(N5CC6CCC(C5)N6)nc(OC[C@]56CCCN5[C@H](COC(=O)N5CC7(C5)CN(c5cc([C@@H](C(=O)N8C[C@H](O)C[C@H]8C(=O)N[C@@H](C)c8ccc(-c9scnc9C)cc8)C(C)C)on5)C7)CC6)nc4c3F)c12 [Compound 144]")
"0.6 to 1 µM"
>>> result("CCc1cccc2cc(O)cc(-c3ncc4c(N5CC6CCC(C5)N6)nc(OCCN5CCC(CC6CN(c7cc([C@H](C(=O)N8C[C@H](O)C[C@H]8C(=O)N[C@@H](C)c8ccc(-c9ccnn9C)cc8)C(C)C)on7)C6)CC5)nc4c3F)c12 (single isomer, unassigned) [Compound 264]")
"< 0.6 µM"
>>> result("CCc1cccc2cc(O)cc(-c3ncc4c(N5CC6CCC(C5)N6)nc(OC[C@@H]5CC[C@H](COC(=O)N6CCN(c7cc([C@H](C(=O)N8C[C@H](O)C[C@H]8C(=O)N[C@@H](C)c8ccc(-c9scnc9C)cc8)C(C)C)on7)CC6)N5C)nc4c3F)c12 [Compound 259]")
"< 0.6 µM"
